The following compounds are listed with their measured growth values.
- Tested on: COLO 205 colon
- test-name: NCI-60 one-dose screen, 48 h (100 = growth as untreated, 0 = no growth, -100 = all killed)
- setup-conditions: 10 µM unless noted
This is part of a sample that, as a whole, favours compounds with a hit. Of some 83,000 tested, about 20% had one in any assay. Activity calls are given as the source filed them. Rule for the calls: active = growth percent below 10; inactive = the rest.

# compound, system, growth
rows = [
    ("O=C(COc1ccc(/C=C2\\Oc3ccccc3C2=O)cc1)Nc1nc2c(s1)CCCC2", "COLO 205 colon", "102% (inactive)"),
    ("COC(=O)[C@]12CC[C@@H](C)[C@H](C)[C@@H]1C1=CC[C@@H]3[C@@]4(C)C(C=O)=C[C@@](C)(COC(=O)c5ccco5)C4=CC[C@@]3(C)[C@]1(C)CC2", "COLO 205 colon", "-55.8% (active)"),
    ("COc1cc(OC)cc(C2CC(=O)Nc3c2c(C)nn3-c2nc3ccccc3[nH]2)c1 (centres undefined)", "COLO 205 colon", "51.4% (inactive)"),
    ("COc1nc2c(c(=O)n1C)CN(c1ccccc1)C(=O)CN2C", "COLO 205 colon", "68.8% [100 µM] (inactive)"),
]

Ask | For CC1=C([Se]CC(OC(=O)[C@@H](CO)NC(=O)OC(C)(C)C)C(=O)NC(C)(C)C)C(=O)c2ccccc2C1=O (some centres undefined) , what is its reported growth?
Reply | -100% (active)

Ask | Subsequent entry: COc1ccc(/C=C/c2c(C(=O)/C=C/c3cccs3)c(C)nc3ccccc23)cc1
Reply | 78.4% (inactive)

====

Attribute: growth
- System: SF-295 CNS
- test-name: NCI-60 one-dose screen, 48 h (100 = growth as untreated, 0 = no growth, -100 = all killed)
- setup-conditions: 10 µM unless noted
- Procedure: Cells are grown in 96 well plates and exposed to the test compound for 48 hours. Compounds are tested at a single concentration, which is 10^-5 M for most compounds. The reported endpoint is percent growth (GI% or GIPRCNT), where numbers from 0 - 100% represent growth inhibition, and numbers from -100% - 0 represent cell death. For example, a value of 40 represents 60% growth inhibition. A value of 0 means no net growth occurred over the course of the experiment. […]
This is part of a sample that, as a whole, favours compounds with a hit. Of some 83,000 tested, about 20% had one in any assay.
Use % as the unit, but write only the number.

# molecule, system, display-unit, growth
data = [
    ("CN(C)c1ccc(-c2ccc3[nH]c(=O)nc(-c4ccccc4)c3c2)cn1", "SF-295 CNS", "%", 39.5),
]

Ask | Give the measured growth of COc1cc(OC)cc(C2CC(=O)Nc3c2c(C)nn3-c2nc3ccccc3[nH]2)c1 (stereo not given) .
Reply | -62.9

Ask | Now give it for CCc1ccccc1-n1c(N)c(C#N)c(-c2ccc(N(C)C)cc2)c(C#N)c1=O too.
Reply | 98.3

Ask | Let us now turn to Cc1nc2c(c(N3CCCc4ccccc43)n1)CCC2
Reply | 9.59

Ask | Lookup CC/C=C\C[C@H](O)C/C=C1/C(=O)C=C[C@@H]1C/C=C\CCCC(=O)OC
Reply | -1.98

Ask | Quick one: O=C1/C(=C2/C=Nc3ccccc32)N(O)c2ccccc21
Reply | 71

Ask | Next up: CNC(=O)c1cc(Oc2cccc3nc(Nc4ccc(F)c(Cl)c4)ccc23)ccn1
Reply | 87

Ask | // repeat for Cc1cc(=O)oc2c1ccc1oc(C#N)c(C)c12 and report
Reply | 102

Ask | Further, for Cc1ccc(/C=C2\C(=O)N(C)c3ccc(S(=O)(=O)Nc4ccc(C(C)(C)C)cc4)cc32)s1 ?
Reply | 42.6

Ask | # repeat for CC1OC(O[C@H]2/C=C/C=C/C=C/C=C/C=C/C=C/C=C/[C@H](C)[C@@H](O)[C@@H](C)[C@H](C)OC(=O)CC(O)CC(O)CCC(O)C(O)CC(O)C[C@]3(O)C[C@H](O)C(C(=O)O)C(C2)O3)C(O)[C@H](N)C1O (stereo not given in full)
Reply | 65

Ask | Now the molecule O=C(Nc1ccccc1-c1nc2ccccc2c(=O)[nH]1)c1cc2ccccc2[nH]1
Reply | 91.3

Ask | Record: O=C(/C=C/c1ccc(Cl)nc1)c1ccc(Cl)cc1Cl
Reply | 91.1

Ask | Moving on to the next molecule: COc1cc(/C=C/C(=O)c2ccc(Nc3nc(Nc4ccc(F)cc4)nc(Nc4ccc(Cl)cc4)n3)cc2)cc(OC)c1OC
Reply | 369

Ask | Next entry: CC/C=C\CCC/C=C1/C(=O)C=C[C@@H]1C/C=C\CCCC(=O)O
Reply | 82.9

Ask | Note, next up: O=C1/C(=C/c2ccc(F)cc2)C=C(c2ccccc2)N1CCc1ccccc1
Reply | 35.9

Ask | Follow-up entry: Cc1ccc(-c2cc(-c3ccccc3C)[nH]c(=O)c2C#N)s1
Reply | 99.2

Ask | Now try CCN(CC)Cc1cccc(C(=O)OC)c1 .
Reply | 97.8

Ask | Can you check CC(C)=C[C@@H]1c2c(c3ccccc3n(C)c2=O)O[C@H]2c3c(c4ccccc4n(C)c3=O)OC(C)(C)[C@@H]12 next?
Reply | 65.5

Ask | Do the same for O=c1c2c3c(sc2n2c(-c4cn(-c5ccccc5)nc4-c4ccc(Cl)cc4)nnc2n1Cc1ccccc1)CCCC3 please
Reply | 98.5

Ask | Also c1cc2ccc3cc2cc1CNCCOCCNCc1ccc2ccc(cc2c1)CNCCOCCNC3 , if possible.
Reply | 14.5

====

- Test system: EKVX NSCLC
- test-name: NCI-60 one-dose screen, 48 h (100 = growth as untreated, 0 = no growth, -100 = all killed)
- setup-conditions: 10 µM unless noted
- Procedure: Growth inhibition of the EKVX human Non-Small Cell Lung tumor cell line is measured as a screen for anti-cancer activity. Cells are grown in 96 well plates and exposed to the test compound for 48 hours. Compounds are tested at a single concentration, which is 10^-5 M for most compounds. The reported endpoint is percent growth (GI% or GIPRCNT), where numbers from 0 - 100% represent growth inhibition, and numbers from -100% - 0 represent cell death. […]
The panel holds about 83,000 compounds, 20% with a hit somewhere; the sample as a whole holds those more often.
Label rule, in plain words: growth of 70% and up is condition met, under 70% is condition not met.

# molecule, label-value
measured = [
    ("O=C(c1ccc(Nc2nccc(NCCCCNc3ccnc4cc(Cl)ccc34)n2)cc1)N1CCCCC1", "condition not met"),
    ("Cc1ccc(-n2nc3c(c(C#N)c2=O)CC(c2ccccc2Cl)C([N+](=O)[O-])=C3O)cc1 (stereo not drawn)", "condition met"),
    ("COC(=O)[C@]12CC[C@@H](C)[C@H](C)[C@@H]1C1=CC[C@@H]3[C@@]4(C)C(C=O)=C[C@@](C)(COS(C)(=O)=O)[C@@H]4C(=O)C[C@@]3(C)[C@]1(C)CC2", "condition not met"),
    ("O=c1[nH]c2ccccc2n1C1CCN(CCOc2ccccc2)CC1", "condition met"),
    ("COc1ccc(-c2nc(SCC(=O)Nc3nc(-c4ccccc4)cs3)[nH]c(=O)c2C#N)cc1", "condition met"),
]

Ask | Hello, I need to know if NS(=O)(=O)c1ccc(-n2nc(C(=O)N/N=C\c3ccc(F)cc3)cc2-c2ccc(Cl)cc2)cc1 has measured growth not below 70%. Thanks!
Reply | condition met

====

- Test system: SNB-75 CNS
- test-name: NCI-60 one-dose screen, 48 h
- setup-conditions: 10 µM unless noted
Compounds without any hit were thinned out: in the full panel of roughly 83,000, 20% have a hit. The source made the active and inactive calls. The calls were made as follows: active = growth percent below 10; inactive = the rest.
// classify into TRUE (active), FALSE (inactive)

Solved cases below.
# compound, label-value
rows = [
    ("COc1ccc2oc3c(C)c4c(c(C)c3c2c1)C(=O)N(Cc1ccccc1)C4=O", "FALSE"),
    ("O=C1/C(=C/c2ccc(F)cc2)C=C(c2ccccc2)N1CCc1ccccc1", "TRUE"),
    ("CCN(CC)CCn1nc2c3c(cccc3c1=O)-c1ccccc1-2", "FALSE"),
    ("O=[N+]([O-])c1ccc(-c2cc(-c3ccc(Nc4nc(Nc5ccc(Cl)cc5)nc(Nc5ccc(Cl)cc5)n4)cc3)no2)cc1", "FALSE"),
    ("CCCCCCCCCCCC(c1ccccc1)[N+](C)(C)C (stereo not given)", "TRUE"),
    ("CC1(C)CC(=O)C2=C(C1)N(c1ccc(OC(F)(F)F)cc1)C(N)=C(C#N)C2c1ccc(Cl)cc1 (stereo not given)", "FALSE"),
    ("Cn1c(-c2c(N)n(Cc3cccnc3)c3nc(C#N)c(C#N)nc23)nc2ccccc21", "FALSE"),
    ("COc1ccc(Nc2nnc(SCc3ccccc3F)s2)cc1", "FALSE"),
]

Ask | Could you please tell me the result logged for CCOC(=O)c1c2c(n3ccc(NC(=O)OC(C)(C)C)cc13)C(=O)c1ncccc1C2=O in this assay?
Reply | TRUE

Ask | Proceed to COc1cccc(Nc2nccc(Nc3ccc4[nH]ncc4c3)n2)c1
Reply | FALSE
